binders and their reported koff
Target: T1, cynomolgus monkey BCMA (cynomolgus monkey, UniProt A0A2K5UD97 1-53)
T1 construct: Soluble analyte in SPR; construct not described; also called cyBCMA; Cyno BCMA
T1 sequence (A0A2K5UD97 entry or part of it): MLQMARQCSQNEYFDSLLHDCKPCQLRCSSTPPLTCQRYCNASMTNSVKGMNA
Assay: SPR, IgG immobilised, 37 C
Entry rule: numbers only, all in s⁻¹.

koff reading for L3.PY/P6E01 (antibody, V domains shown, IgG) VH: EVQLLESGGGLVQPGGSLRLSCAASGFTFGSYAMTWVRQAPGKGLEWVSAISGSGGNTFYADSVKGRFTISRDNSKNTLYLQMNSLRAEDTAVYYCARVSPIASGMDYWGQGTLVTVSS VL: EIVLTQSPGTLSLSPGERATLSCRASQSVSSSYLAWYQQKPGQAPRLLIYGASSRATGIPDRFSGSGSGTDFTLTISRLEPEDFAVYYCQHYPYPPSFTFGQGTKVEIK : 0.0131

koff reading for L3.PY/L1.AH/H3.AQ (antibody, V domains shown, IgG) VH: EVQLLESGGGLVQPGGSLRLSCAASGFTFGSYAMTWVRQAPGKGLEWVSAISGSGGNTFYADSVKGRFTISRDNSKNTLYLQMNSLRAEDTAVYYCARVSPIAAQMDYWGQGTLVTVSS VL: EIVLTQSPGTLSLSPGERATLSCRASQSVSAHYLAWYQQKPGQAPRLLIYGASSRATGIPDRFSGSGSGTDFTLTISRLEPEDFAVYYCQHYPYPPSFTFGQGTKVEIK : 0.00399

koff reading for L3.PY/L1.AH/H2.HA (antibody, V domains shown, IgG) VH: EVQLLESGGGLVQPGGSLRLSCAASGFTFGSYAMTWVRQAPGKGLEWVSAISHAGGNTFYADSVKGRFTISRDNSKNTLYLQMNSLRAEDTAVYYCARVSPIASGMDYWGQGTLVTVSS VL: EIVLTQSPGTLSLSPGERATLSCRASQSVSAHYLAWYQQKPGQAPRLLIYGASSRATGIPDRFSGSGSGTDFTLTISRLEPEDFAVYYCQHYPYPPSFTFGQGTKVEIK : 0.00439

koff reading for L3.PY/L1.PS/P6E01 (antibody, V domains shown, IgG) VH: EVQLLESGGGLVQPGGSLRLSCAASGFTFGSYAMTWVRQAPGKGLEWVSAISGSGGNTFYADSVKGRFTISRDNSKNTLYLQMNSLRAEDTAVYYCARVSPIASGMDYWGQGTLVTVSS VL: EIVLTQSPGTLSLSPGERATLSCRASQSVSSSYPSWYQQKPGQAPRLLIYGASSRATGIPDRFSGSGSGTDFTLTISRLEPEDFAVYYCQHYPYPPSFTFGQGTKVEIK : 0.00606

koff reading for L3.PY/L1.AH/H3.AE (antibody, V domains shown, IgG) VH: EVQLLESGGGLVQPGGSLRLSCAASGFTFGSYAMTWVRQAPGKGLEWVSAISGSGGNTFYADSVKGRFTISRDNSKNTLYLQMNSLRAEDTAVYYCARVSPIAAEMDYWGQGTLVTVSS VL: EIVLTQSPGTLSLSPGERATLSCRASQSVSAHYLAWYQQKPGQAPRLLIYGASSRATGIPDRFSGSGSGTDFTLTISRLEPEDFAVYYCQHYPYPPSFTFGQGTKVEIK : 0.00356

Entry source: patent US20160297884A1
